Parameter: CC50. Scope: all listed entries.
# measurement.notes: in vitro
# recorded.conditions: human
measure: CC50

>>> value_observed("Cc1ccc2ccccc2c1[As](=O)(O)c1c(C)ccc2ccccc12 [As-8]")
"> 100 µM"
>>> value_observed("c1ccc(-c2ccccc2[As]23(OCCO2)OCCO3)cc1 [As-4]")
"> 100 µM"
